- assay-text: Stability of non-dihydrate azithromycin in constituted suspension: conversion to dihydrate (form A) quantified by SS-NMR
- Format: physicochemical
- condition-details: Formulation II constituted with 18 ml water, 30° C., day 1
test-readout: % A (%)
Number in %, nothing else.

The cases that follow already have their % A on record.
compound	% A (%)
CCC1OC(=O)C(C)C(O[C@H]2C[C@@](C)(OC)[C@@H](O)C(C)O2)C(C)[C@@H](OC2OC(C)CC(N(C)C)[C@H]2O)[C@@](C)(O)C[C@@H](C)CN(C)[C@H](C)[C@@H](O)[C@]1(C)O (stereo partly shown) [Form M]	28
CC[C@H]1OC(=O)[C@H](C)[C@@H](O[C@H]2C[C@@](C)(OC)[C@@H](O)[C@H](C)O2)[C@H](C)[C@@H](O[C@@H]2O[C@H](C)C[C@H](N(C)C)[C@H]2O)[C@](C)(O)C[C@@H](C)CN(C)[C@H](C)[C@@H](O)[C@]1(C)O [Form G, azithromycin sesquihydrate]	82
CCC1OC(=O)C(C)C(O[C@H]2C[C@@](C)(OC)[C@@H](O)C(C)O2)C(C)[C@@H](OC2OC(C)CC(N(C)C)[C@H]2O)[C@@](C)(O)C[C@@H](C)CN(C)[C@H](C)[C@@H](O)[C@]1(C)O (stereo partly shown) [Form J]	0

Below: the item to evaluate.
Name the recorded % A of the compound listed here: CCC1OC(=O)C(C)C(O[C@H]2C[C@@](C)(OC)[C@@H](O)C(C)O2)C(C)[C@@H](OC2OC(C)CC(N(C)C)[C@H]2O)[C@@](C)(O)C[C@@H](C)CN(C)[C@H](C)[C@@H](O)[C@]1(C)O (stereo partly shown) [Form F]
19
